# tgt: GST tagged truncated human mutant G2019S LRRK2 (Homo sapiens (Human), UniProt Q5S007, G2019S)
# Sequence (Q5S007 970-2527 G2019S): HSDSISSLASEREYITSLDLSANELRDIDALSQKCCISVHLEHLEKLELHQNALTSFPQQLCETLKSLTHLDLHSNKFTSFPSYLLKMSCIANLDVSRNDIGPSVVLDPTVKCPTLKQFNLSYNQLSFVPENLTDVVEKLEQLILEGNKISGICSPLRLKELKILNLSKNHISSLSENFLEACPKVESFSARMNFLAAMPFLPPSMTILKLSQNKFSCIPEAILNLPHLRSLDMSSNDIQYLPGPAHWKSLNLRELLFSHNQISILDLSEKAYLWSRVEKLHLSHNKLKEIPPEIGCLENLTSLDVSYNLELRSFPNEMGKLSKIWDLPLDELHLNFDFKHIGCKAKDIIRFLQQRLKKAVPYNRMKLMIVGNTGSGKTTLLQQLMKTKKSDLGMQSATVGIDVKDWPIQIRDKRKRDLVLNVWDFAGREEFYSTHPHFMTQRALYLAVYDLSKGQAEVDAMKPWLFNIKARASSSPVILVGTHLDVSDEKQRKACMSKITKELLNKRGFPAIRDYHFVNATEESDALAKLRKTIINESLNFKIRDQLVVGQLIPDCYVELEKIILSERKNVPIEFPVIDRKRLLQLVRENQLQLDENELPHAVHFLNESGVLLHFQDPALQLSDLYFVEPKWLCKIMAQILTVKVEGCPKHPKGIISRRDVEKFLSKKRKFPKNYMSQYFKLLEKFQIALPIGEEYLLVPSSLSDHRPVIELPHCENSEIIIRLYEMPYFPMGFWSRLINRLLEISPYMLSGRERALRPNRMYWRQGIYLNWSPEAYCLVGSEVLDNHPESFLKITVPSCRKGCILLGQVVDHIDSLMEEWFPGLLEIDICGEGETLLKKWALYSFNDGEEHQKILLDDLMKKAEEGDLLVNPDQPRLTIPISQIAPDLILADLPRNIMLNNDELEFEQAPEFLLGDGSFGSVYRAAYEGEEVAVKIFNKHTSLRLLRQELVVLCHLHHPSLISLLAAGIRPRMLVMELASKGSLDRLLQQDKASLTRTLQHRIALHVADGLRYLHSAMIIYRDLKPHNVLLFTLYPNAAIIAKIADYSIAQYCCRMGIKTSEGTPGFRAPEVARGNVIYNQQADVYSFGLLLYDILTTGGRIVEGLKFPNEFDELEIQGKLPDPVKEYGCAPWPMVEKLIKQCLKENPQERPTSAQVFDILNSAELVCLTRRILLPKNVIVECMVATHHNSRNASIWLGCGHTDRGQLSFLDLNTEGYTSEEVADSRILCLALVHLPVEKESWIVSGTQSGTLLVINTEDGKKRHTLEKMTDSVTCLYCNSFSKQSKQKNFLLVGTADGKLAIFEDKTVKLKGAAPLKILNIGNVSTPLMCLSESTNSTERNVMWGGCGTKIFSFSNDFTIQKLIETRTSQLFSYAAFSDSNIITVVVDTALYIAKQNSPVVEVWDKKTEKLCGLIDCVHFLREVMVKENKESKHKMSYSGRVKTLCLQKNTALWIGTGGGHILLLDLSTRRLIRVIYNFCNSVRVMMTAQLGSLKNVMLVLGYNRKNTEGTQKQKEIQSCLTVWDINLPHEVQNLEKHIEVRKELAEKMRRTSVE
# test_summary: LRRK2 Km ATP LanthaScreen Assay
# Format: biochemical
# particulars: G2019S LRRK2, 134 μM ATP (Km ATP), mean values
reported_endpoint: LRRK2 pIC50
Output: the number by itself.

Answered cases to consult:
Cc1c(Nc2ncc3cc(Cl)c([C@@H]4CCN(C5COC5)C[C@H]4F)cc3n2)cnn1C1CC1(F)F (single isomer, unassigned) [Ex-4.178] : 8.58
CC1(N2CC[C@@H](c3cc4nc(Nc5cnn(C6CC6)c5Cl)ncc4cc3Cl)[C@H](F)C2)COC1 (single isomer, unassigned) : 8.01

Could you now consider this next compound?
I am curious: what LRRK2 pIC50 value has been reported for Cc1cc2cnc(Nc3cnn(C4CC4)c3Cl)nc2cc1C1CCN([C@]2(C)COC[C@@H]2O)CC1 (single isomer, unassigned) ? 7.78

###

In this section we review reported IC50 values for a set of compounds.
# tgt: GST tagged truncated human mutant G2019S LRRK2 (Homo sapiens (Human), UniProt Q5S007, G2019S)
# test_summary: LRRK2 Km ATP LanthaScreen Assay
# Format: biochemical
# particulars: G2019S LRRK2, 134 μM ATP (Km ATP), mean values; read-out: LRRK2 pIC50 (converted)
The response must be a number in nM with no trailing unit.

Cc1c(Nc2ncc3cc(Cl)c(C4CCN(C5CCCC5(F)F)CC4)cc3n2)cnn1C1CC1 (single isomer, unassigned) [Ex-1.21] : 1.86
CC1(n2ncc(Nc3ncc4cc(Cl)c(C5CCN(C6COC6)C5)cc4n3)c2Cl)CC1 (single isomer, unassigned) [Ex-4.25] : 3.09
Cc1c(Nc2ncc3cc(Cl)c(C4CCN(C5COC5)CC4)cc3n2)cnn1C1CCOC1 (single isomer, unassigned) [Ex-2.23] : 1.15

I have this compound here, Cc1c(Nc2ncc3cc(Cl)c(C4CCN(C5COC(C)(C)C5)CC4)cc3n2)cnn1C1CC1 (single isomer, unassigned) [Ex-4.173] , and I need its recorded IC50. 3.72

Which IC50 is reported for this compound? Cc1c(Nc2ncc3cc(Cl)c(C4CCN(CC(O)c5ccc(Cl)cc5)CC4)cc3n2)cnn1C1CC1 (single isomer, unassigned) [Ex-4.224] 13.8

Query: IC50; subject: Cc1c(Nc2ncc3cc(Cl)c(C4CCN(CC(O)CN5CCOCC5)CC4)cc3n2)cnn1C1CC1 (single isomer, unassigned) [Ex-4.228] 1.55

Could you share which IC50 value was measured for Cc1nsc(Nc2ncc3cc(Cl)c([C@@H]4CCN(C5COC5)C[C@H]4F)cc3n2)c1Cl (single isomer, unassigned) [Ex-4.87] ? 12.6

Can you share its IC50? I mean this compound: CCN1CC[C@@H](c2cc3nc(Nc4cnn(CC(C)(C)O)c4Cl)ncc3cc2Cl)[C@H](F)C1 (single isomer, unassigned) 1.62

Bench note: what IC50 did Cc1c(Nc2ncc3cc(Cl)c(C4CCN(CC(C)(O)c5ccccc5)CC4)cc3n2)cnn1C1CC1 (single isomer, unassigned) show? 2.45

###

# tgt: GST tagged truncated human mutant G2019S LRRK2 (Homo sapiens (Human), UniProt Q5S007, G2019S)
# test_summary: LRRK2 Km ATP LanthaScreen Assay
# Assay type: biochemical
# particulars: G2019S LRRK2, 134 μM ATP (Km ATP), mean values
# key: entry, value: LRRK2 pIC50
Reply with just the number.

CC1OCC1N1CC[C@@H](c2cc3nc(Nc4cnn(CC(C)(C)O)c4Cl)ncc3cc2Cl)[C@H](F)C1 (single isomer, unassigned) [Ex-4.70] : 7.92

Now for the compound whose LRRK2 pIC50 we want.
Reported LRRK2 pIC50 for Cc1c(Nc2ncc3cc(Cl)c(C4CCN(C5COC5C)CC4)cc3n2)cnn1C(C)(C)C#N (single isomer, unassigned) [Ex-4.133] : what is it? 8.92

src = patent US12540131B2
